molecular target: DENV-4 VLP (Dengue virus serotype 4, strain …, UniProt P09866 114-774)
Here the recorded Response (nm) is given for each entry.
readout: Response (nm)

INSERT INTO assay_data (binder, result) VALUES
  ('DENV4-7G4 (antibody, V domains shown, also called Clone 7G4) VH: QSVEESGGRLVTPGTPLTLTCTVSGFSLSSCAMTWVRQAPGKGLEWIGYIYVDSDTTYYASWAKGRFTISTTSTTVDLRITSPTTEDTATYFCARTTAYVGGGYGDDTFDPWGPGTLVTVSS VL: DVVMTQTPASVEAAVGGTVTINCQASQNINSYLSWYQQKPGQRPKLLIYRAFTLASGVSSRFKGSGSGTQFTLTISGVECADAATYYCQQGYSFSGVDNVFGGGTEVVVK', '2.16 nm'),
  ('DENV4-7F2 (antibody, V domains shown, also called Clone 7F2) VH: QSVEESGGRLVTPGTPLTLTCTVSGIDLSYYAMGWVRQAPGEGLECIGFIDTGDSAYYASWAKGRFTISKTSSTTVDLKITSPTPEDTATYFCGRSLSSYYDWDAFDPWGPGTLVTVSS VL: AYDMTQTPASVEVAVGGTVTINCQASQTIGNLLAWYQQKPGQRPKLLIYRASTLASGVPSRFKGSGSGTQFTLTISGVECADAATYYCQQGASANDIDNSFGGGTAVVVK', '2.32 nm');
